Test: Myorelaxant effect in oxytoxin-induced Wistar rat uterus smooth muscle assessed as residual contractile activity by continuous superfusion of oxytocin at 50 uM
Assay type: functional
I'd appreciate it if you could supply Activity values for the items below.
Number only, in %; omit the unit.

Return reported Activity; argument: Cc1ccc2c(c1)S(=O)(=O)N=C(C(=O)NC1CC(C)(C)Oc3ccc([N+](=O)[O-])cc31)N2 (stereo not given) 94.9

Return reported Activity; argument: Cc1ccc2c(c1)S(=O)(=O)N=C(C(=O)NC1CC(C)(C)Oc3ccc(Br)cc31)N2 (stereo not given) 44.5

Return reported Activity; argument: CC1(C)CC(NC(=O)C2=NS(=O)(=O)c3ccccc3N2)c2cc(F)ccc2O1 (stereo not given) 97.9

Return reported Activity; argument: CC1(C)CC(NC(=O)C2=NS(=O)(=O)c3ccccc3N2)c2cc(Br)ccc2O1 (stereo not given) 44.3

Return reported Activity; argument: Cc1ccc2c(c1)S(=O)(=O)N=C(C(=O)NC1CC(C)(C)Oc3ccc(F)cc31)N2 (stereo not given) 132.4
